Molecular target: UniProt P21554
Assay: cAMP CNR1 Hunter cell line antagonist assay (CB1 assay)
Conditions: antagonist mode, cAMP CNR1 Hunter cells, EC80 agonist; read-out: CB1 assay, Efficacy (IC50)
ENDPOINT: IC50

Example molecules with recorded IC50:
MOLECULE	EXPERIMENTAL_SYSTEM	IC50
CS(=O)(=O)c1cc2c(c(S(=O)(=O)Nc3cccc(Cl)c3)c1)OCC(=O)N2	UniProt P21554	≥ 25 µM
CCC1Oc2cc(S(=O)(=O)Nc3ccc(F)cc3F)c(Cl)cc2NC1=O (stereo not drawn)	UniProt P21554	1 to 25 µM
CC1Oc2c(cc(Br)cc2S(=O)(=O)NCc2ccc(OC(F)(F)F)cc2)NC1=O (stereo not drawn)	UniProt P21554	1 to 25 µM
CCC1Oc2cc(S(=O)(=O)Nc3ccc(C(C)C)cc3)c(Br)cc2N(C)C1=O (stereo not drawn)	UniProt P21554	≥ 25 µM
O=C1NCCOc2c1cc(Br)cc2S(=O)(=O)Nc1ccc(Cl)cc1	UniProt P21554	≥ 25 µM

Give IC50 for each listed item.
1. CCC1Oc2c(cc(Br)cc2S(=O)(=O)Nc2ccc(C)cc2)NC1=O (stereo not drawn)
2. O=C1COc2cc(S(=O)(=O)NCc3ccc(C(F)(F)F)cc3)c(Br)cc2N1
3. Cc1ccc(NS(=O)(=O)c2cc3c(cc2Br)N(C)C(=O)C(C)O3)cc1Cl (stereo not drawn)
4. CC1Oc2c(cc(Br)cc2S(=O)(=O)Nc2cccc(Cl)c2)N(C)C1=O (stereo not drawn)

Return:
1. ≥ 25 µM
2. ≥ 25 µM
3. ≥ 25 µM
4. 1 to 25 µM

###

Could you please report measured IC50 for the items listed next?
Target: CB1 (CNR1) (Homo sapiens)
Sequence (P21554 whole entry): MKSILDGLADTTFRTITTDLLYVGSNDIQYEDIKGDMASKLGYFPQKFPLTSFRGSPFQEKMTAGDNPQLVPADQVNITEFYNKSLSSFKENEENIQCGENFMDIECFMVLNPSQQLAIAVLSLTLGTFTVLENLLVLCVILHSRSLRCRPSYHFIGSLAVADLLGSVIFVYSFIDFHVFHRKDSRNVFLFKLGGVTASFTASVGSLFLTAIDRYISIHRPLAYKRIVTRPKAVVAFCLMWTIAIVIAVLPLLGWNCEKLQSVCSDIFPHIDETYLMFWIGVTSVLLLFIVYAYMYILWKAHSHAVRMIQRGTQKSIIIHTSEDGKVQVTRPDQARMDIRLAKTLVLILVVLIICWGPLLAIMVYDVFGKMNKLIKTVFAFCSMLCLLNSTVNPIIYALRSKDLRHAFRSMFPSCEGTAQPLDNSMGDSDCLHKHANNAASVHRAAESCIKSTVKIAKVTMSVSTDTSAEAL
Assay: cAMP CNR1 Hunter cell line antagonist assay (CB1 assay)
Conditions: antagonist mode, cAMP CNR1 Hunter cells, EC80 agonist; read-out: CB1 assay, Efficacy (IC50)

Example compounds with recorded IC50:
COMPOUND	RECORDED_VALUE
O=C1CCOc2cc(S(=O)(=O)Nc3cccc(Cl)c3)c(Br)cc2N1	≥ 25 µM
Cc1ccc(NS(=O)(=O)c2cc3c(cc2Br)N(C)C(=O)C(C)O3)cc1 (stereo not drawn)	≥ 25 µM

Enquiry: Tell me measured IC50 for `N#Cc1ccc(NS(=O)(=O)c2cc(Br)cc3c2OCCNC3=O)cc1` please.
Return: ≥ 25 µM

Every entry's value here was drawn from patent US20240000806A1.
